test-method-notes: Liver microsomal stability, rat
condition-summary: Sprague Dawley, rat, microsomes
parameter-measured: CLint scaled at 1 μM (L/h/kg)
Write the answer as a number in L/h/kg, unit excluded.

Query string: Which measured CLint scaled at 1 μM value corresponds to `C[C@]12CC[C@H]3[C@@H](CCC4=CC(=O)CC[C@@]43C)[C@@H]1CC[C@@H]2O` ?
Result string: 234

====

system-name: Adrenergic Beta1 receptor (Homo sapiens, UniProt P08588)
Sequence (P08588 whole entry): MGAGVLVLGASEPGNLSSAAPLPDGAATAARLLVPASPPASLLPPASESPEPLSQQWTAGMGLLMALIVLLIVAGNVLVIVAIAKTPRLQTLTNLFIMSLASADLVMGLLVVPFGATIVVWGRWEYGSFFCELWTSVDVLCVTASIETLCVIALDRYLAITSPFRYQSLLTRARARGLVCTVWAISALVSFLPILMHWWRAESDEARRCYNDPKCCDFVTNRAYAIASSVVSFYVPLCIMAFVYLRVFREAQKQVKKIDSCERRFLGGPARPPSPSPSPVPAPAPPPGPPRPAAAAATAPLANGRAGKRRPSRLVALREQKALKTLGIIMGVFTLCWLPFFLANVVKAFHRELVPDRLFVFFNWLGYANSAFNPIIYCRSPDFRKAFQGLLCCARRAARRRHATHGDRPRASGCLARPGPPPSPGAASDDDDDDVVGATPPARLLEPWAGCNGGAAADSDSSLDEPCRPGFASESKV
parameter-measured: IC50

Query string: Which measured IC50 value corresponds to Nc1cccc2c1C(=S)N(C1CCC(=O)NC1=O)C2=O (stereo not shown) [3-MP, 3-Monothiopomalidomide] ?
Result string: > 10 µM

====

system-name: Adrenergic Beta3 receptor (Homo sapiens)
Sequence (P13945 whole entry): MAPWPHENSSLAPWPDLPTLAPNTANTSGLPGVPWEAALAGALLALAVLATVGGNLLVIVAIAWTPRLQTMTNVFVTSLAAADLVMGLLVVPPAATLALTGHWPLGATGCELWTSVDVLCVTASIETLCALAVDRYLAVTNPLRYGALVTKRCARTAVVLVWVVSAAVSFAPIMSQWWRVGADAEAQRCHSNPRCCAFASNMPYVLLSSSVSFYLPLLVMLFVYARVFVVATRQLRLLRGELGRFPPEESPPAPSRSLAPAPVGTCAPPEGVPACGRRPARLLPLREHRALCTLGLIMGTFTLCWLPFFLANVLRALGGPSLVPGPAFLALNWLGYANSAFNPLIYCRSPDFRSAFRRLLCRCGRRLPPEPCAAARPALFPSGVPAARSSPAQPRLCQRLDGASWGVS
pIC50: −log10 of the molar value.
parameter-measured: pIC50

Query string: Which measured pIC50 value corresponds to Nc1cccc2c1C(=S)N(C1CCC(=O)NC1=O)C2=O (stereo not shown) [3-MP, 3-Monothiopomalidomide] ?
Result string: < 5.00

====

system-name: Muscarinic M1 receptor (Homo sapiens)
Sequence (P11229 whole entry): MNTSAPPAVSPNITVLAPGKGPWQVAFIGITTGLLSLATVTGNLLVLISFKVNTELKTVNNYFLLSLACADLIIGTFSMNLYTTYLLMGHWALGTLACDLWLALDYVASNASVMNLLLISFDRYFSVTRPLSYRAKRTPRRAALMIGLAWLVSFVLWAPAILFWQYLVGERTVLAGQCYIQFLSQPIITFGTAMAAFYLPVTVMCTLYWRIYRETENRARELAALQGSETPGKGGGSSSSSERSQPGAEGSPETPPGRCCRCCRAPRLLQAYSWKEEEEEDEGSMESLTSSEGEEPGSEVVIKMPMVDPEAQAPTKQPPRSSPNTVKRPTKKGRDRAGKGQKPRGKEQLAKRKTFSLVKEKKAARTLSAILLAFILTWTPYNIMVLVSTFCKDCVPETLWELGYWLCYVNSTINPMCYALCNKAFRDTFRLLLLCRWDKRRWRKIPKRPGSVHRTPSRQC
pIC50: −log10 of the molar value.
parameter-measured: pIC50

Query string: Which measured pIC50 value corresponds to Nc1cccc2c1C(=S)N(C1CCC(=O)NC1=O)C2=O (stereo not shown) [3-MP, 3-Monothiopomalidomide] ?
Result string: < 5.00

====

test-method-notes: Brain entry in rats (brain and plasma at 5 h)
Format: in vivo
condition-summary: male, Fischer 344, rat, brain, ip, 26.5 mg/kg, 26.5 mg/kg I.P., read-out: Brain/plasma ratio
parameter-measured: Kp at 5 h
Could you keep your reply to the number by itself?

Query string: Which measured Kp at 5 h value corresponds to Nc1cccc2c1C(=S)N(C1CCC(=O)NC1=O)C2=O (stereo not shown) [3-MP, 3-Monothiopomalidomide] ?
Result string: 0.61

====

system-name: Histamine H4 receptor (Homo sapiens, UniProt Q9H3N8)
Sequence (Q9H3N8 whole entry): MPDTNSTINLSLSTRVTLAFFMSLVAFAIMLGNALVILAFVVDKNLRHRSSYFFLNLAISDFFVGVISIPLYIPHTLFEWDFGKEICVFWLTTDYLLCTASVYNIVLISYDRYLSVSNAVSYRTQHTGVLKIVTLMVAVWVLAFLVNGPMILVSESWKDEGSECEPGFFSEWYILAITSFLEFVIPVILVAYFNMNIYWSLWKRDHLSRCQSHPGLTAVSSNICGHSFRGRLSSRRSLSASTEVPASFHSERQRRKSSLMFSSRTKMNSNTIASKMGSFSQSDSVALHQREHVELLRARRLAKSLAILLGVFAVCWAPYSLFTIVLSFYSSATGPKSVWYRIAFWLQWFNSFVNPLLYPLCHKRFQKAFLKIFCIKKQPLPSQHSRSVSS
test-method-notes: PDSP radioligand binding
condition-summary: read-out: 3-MP concentration required to induce 50% inhibition of PDSP radioligand binding
parameter-measured: IC50

Query string: Which measured IC50 value corresponds to Nc1cccc2c1C(=S)N(C1CCC(=O)NC1=O)C2=O (stereo not shown) [3-MP, 3-Monothiopomalidomide] ?
Result string: > 10 µM

====

system-name: Serotonin 5-HT2A receptor (Homo sapiens)
Sequence (P28223 whole entry): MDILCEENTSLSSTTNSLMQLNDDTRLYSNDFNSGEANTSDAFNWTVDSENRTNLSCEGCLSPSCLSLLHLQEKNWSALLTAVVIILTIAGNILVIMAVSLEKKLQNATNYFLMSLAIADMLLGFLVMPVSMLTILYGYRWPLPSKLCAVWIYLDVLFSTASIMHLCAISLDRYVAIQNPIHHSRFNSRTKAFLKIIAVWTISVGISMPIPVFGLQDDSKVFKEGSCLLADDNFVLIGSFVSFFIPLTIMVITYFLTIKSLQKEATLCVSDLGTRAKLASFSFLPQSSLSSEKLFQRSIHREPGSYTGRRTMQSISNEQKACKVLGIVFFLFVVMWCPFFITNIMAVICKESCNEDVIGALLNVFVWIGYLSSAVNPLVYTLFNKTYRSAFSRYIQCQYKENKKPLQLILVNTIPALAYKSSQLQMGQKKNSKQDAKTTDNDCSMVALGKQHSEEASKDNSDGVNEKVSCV
pIC50: −log10 of the molar value.
parameter-measured: pIC50

Query string: Which measured pIC50 value corresponds to Nc1cccc2c1C(=S)N(C1CCC(=O)NC1=O)C2=O (stereo not shown) [3-MP, 3-Monothiopomalidomide] ?
Result string: < 5.00

====

system-name: Serotonin 5-HT3 receptor (Homo sapiens, UniProt P46098)
Sequence (P46098 24-478): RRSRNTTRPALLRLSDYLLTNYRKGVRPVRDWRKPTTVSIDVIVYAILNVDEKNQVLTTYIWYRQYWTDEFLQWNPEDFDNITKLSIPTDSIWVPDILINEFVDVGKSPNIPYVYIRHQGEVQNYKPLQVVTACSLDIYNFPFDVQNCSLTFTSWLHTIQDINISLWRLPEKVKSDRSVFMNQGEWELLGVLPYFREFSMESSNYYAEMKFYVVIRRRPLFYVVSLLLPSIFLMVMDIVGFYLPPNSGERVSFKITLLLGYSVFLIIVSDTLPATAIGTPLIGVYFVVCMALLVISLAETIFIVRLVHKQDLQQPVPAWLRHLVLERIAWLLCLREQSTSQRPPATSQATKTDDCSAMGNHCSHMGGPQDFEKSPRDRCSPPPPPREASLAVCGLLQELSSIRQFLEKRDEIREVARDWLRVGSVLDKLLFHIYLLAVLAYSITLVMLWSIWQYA
parameter-measured: IC50

Query string: Which measured IC50 value corresponds to Nc1cccc2c1C(=S)N(C1CCC(=O)NC1=O)C2=O (stereo not shown) [3-MP, 3-Monothiopomalidomide] ?
Result string: > 10 µM

====

system-name: Muscarinic M4 receptor (Homo sapiens, UniProt P08173)
Sequence (P08173 1-479): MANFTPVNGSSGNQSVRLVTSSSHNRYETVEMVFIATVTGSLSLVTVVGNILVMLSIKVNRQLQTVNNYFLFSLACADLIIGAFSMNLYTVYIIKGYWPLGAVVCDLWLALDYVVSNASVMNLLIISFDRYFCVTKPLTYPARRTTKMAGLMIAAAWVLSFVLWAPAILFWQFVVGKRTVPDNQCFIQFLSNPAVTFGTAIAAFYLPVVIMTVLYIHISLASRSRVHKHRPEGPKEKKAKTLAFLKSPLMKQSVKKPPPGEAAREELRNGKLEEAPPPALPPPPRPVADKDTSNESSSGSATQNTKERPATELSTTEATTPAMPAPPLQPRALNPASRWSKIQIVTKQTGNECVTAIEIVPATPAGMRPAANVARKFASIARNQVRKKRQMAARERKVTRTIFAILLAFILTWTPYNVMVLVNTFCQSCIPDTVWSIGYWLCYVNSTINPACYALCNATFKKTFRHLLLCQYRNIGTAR
parameter-measured: IC50

Query string: Which measured IC50 value corresponds to Nc1cccc2c1C(=S)N(C1CCC(=O)NC1=O)C2=O (stereo not shown) [3-MP, 3-Monothiopomalidomide] ?
Result string: > 10 µM
